assayMethodText: melting temperature (DSF); higher = more thermostable
measureName: melting temperature

The examples below pair each entry with its known result.
macromoleculeSequence	melting temperature
DEIGQAPTSSNITGNGSFSVATYNISSLVSGFGGGVAYYPTTSGRYPVIAVSPGFTARWSSISWIGPRLASWGFVVVGIETNSIYDQPGSRGSQLLAALNWAVNSAPSSVRDRVDGSRRGVAGHSMGGGGTLEALAADTTGLVKAGVPIAPWNTDTTWGGLNEAVQIVGGESDTIAPVSSHSIPFYSTLGGPKSYVELNGASHFFPQTSNSTLSRALVSWFKRYLNNDARFTPFTCGYSGLSISDFRSNNC [ESM144]	50.2 C
ETEYRKGPDPTEATVTAALGPFATASVSVPSSVAGFGGGVIHYPTDTSQGTFGAVAVAPGFLGSSANYAWMGPRLASQGFVVFLINTDSRLDQPPSRGDQLLAALDYLVTSSSVRARIDASRLAVAGHSMGGGGTLEAATDRPGLQAAIPLQPWHTVKSWPNVQVPTLIIGAENDTTAPVASHAEPFYVSIPAAAEKAYLELNNAEHRVGTAGDTTQAKFMIVWLKRYVDNDTRYEQFICPPPPAPSSEIQEYRNTCPG [TEP171]	44.2 C
DQGPPPTIASLSVDGAYAVMTYTDIPDVPEFGDATVYYPVDTAMPIGGVAISPGWTELQRHIEWWGPRLASHGYAVLILDTNDAMADQPEQRAEALIAAVRILRGENDRAGSPLSGRIDTEKMAIMGHSMGGGGVLIAANNYPAEIQAAIPFTPWQPAGDFSQVVAPTLVMAGSADRVASVSDHAWPHYQSIPESTIKVFLEIDGGSHFIADTSRGEDLGTIGRYGIAWLKLYLDGDERYRGFIYGDEAASDSEKFSRYVTSP [TEP021]	30.7 C
DEIGQAPTASNITGNGSFATTSESISSLVSGFGGGRVYYPTATGRYPVIAISPGFTATWSSLAWIGPRLSSWGFVVVGIETNSIYDQPGSRGNQLLAALNWAVNSSSTAVRSRVDGSRRGVAGHSMGGGGTLEALAADTSGLVKAGVPLAPWNTDKIWSNVSEPVLIVGGQADTIAPVATHSVPFYNTLAGPKTYVELTGASHFFPQTTNATTSRALVSWFKRWLNQDSRFTPYTCGFGGLAVSDFRSNAC [ESM147]	67.9 C
MAADNPYQRGPNPTSASVAASRGTFATAELSVPRGNGFGGGKIYYPTDTTQGTFGAIAIVPGYTATWAAEGAWMGHWLASFGFVVIGIDTNSRNDNDTARGTQLLAALDYLTQRSSVRGRVDAKRLAVMGHSMGGGGALVAARQRPSLKAAVGLAPFKPSGPPSADRVPTMVIAGQRDGTVTPSYVDGLYRAIPAGTEKAYLEFAGAGHAFPTRPNPLQMRLVIPWLKSFTDHDTRYHQFLCPLKDRTGVTAYRSTCPLVAPGARD [TEP041]	54.4 C

[Q] Identify measured melting temperature associated with ATGPSSPCTNCTRGPNPTVAALKSNSGPFSTAKFSVSGYLKGFGDSTVYYPTNTTGKMGAIAVIPGYLSYESSIEWWGPRLASHGFVVITMNTNTIYDQPDSRATQLSKALDYVIAQSNSSSSPIAGKVDSTRLGAIGWSMGGGGSLKLSTQRSLNAIIPQAPYYAGSNSFNTIKTPTLILACGVDAVAPVAAHASPFYNKIPNTTPKAFLEIYGGSHFCANSGYPNQDLLGMYGISWMKRFIDFDKRYSQFLCGPNHQADLAISEYRQNCNY [ESM048]
[A] 49.6 C

[Q] Identify measured melting temperature associated with QYQKGPDPTVAGLERDGTFAIRTTTVSRLSASGFGGGTIYYPTATGSYGVVAVSPGFTAYQSSISWIGSRLASHGFVVITIDTNTTSDQPDSRARQLKAALDKVVSLASSRTNVLYGKVDSSRLAVAGHSMGGGGSLAAARDYPSLKASVPLAPWHTTKSFSTVRVPTLIVGADGDTVASVTSHSIPFYTSIPSSTPKGYLELNNEDHFFPQDSGEYGLVGKYMISWFKRFVDSDTRYSPFLCGAPHQTQIANTLRVSDSRTNCPY [DP038]
[A] 56.2 C

[Q] Identify measured melting temperature associated with NPYERGPAPTTSSIEASRGSFATSTTTVSRLAVSGFGGGTIYYPTSTASGTFGAVSIAPGFTATQSSMAWLGPRLASQGFVVFTIDTITTSDQPDSRGRQLLSSLDYLTQQSSVRSRIDSSRLGVVGHSMGGGGTLEAARSRPSLQAAVPLTGWNLTKSWSTVRVPTLVVGAQADTVAPVASHSIPFYTSLPSSLDKAYLELRGASHFAPNSANTTIAKYTLSWLKRFIDDDTRYEQFLCPIPGTSTTISDYRGNCPHAG [ESM140]
[A] 51.7 C

[Q] Identify measured melting temperature associated with ADNPYQRGPDPTRTSVAAVNGPFANTSVSVPTGYGFNGGRIYYPTDTSQGTFGAIAISPGYTALFSAELAWMGPWLASHGFVVIGIETNSRNDFDTARGTQLLAALDYLTQQSPVRDRVDPNRLAVSGHSMGGGGALSAAIRRSSLKAVVGIAPYSPSSNLANDRVPTMIFSGQADTVVTPSYATGLYNSLPATTESVYLEVAGADHGFMVGRSNPVMIRTMLPFVKMFIDNDTRYSQFLCPLLDSSGVVTYRSTCPLLPPAPTTPPPTGTPTPTPSSNPTTPPTTPPSTPTA [ESM061]
[A] 62.8 C

[Q] Identify measured melting temperature associated with AGNPYQRGPDPTLASVAASRGTFATAQVSVPAGNGFNGGTIYYPTDSSQGTWGAVAIVPGYTALFANEEAWMGPWLASFGFVVIGIETNSRTDFDTARGTQLLAALDYLTQKSPVRDRVDSARLGVIGHSMGGGGVVYATEHRPSLKAAVALAPFSPSQDMSTDHVPTMVMGGQNDTVVTPSYLDGLYATMPASTQSDFVQLAGADHVAYTHPNTTEMRLLIPWLKIFLDDDTRYTQFLCPLMDSTGVSAYHSKCPYVPPGGSTSTPTPTPTITPTPPPSGACSATYRTVNSWSGGYQGEVTVTAGDAAINGWTVRWNLGGGQTVTQVWNGTLSTSGSTATVTNASYNGSLQASASTTFGFLANGTPSTPAITCTSP [TEP114]
[A] 41.8 C
